test system: TK-10 renal; assay: NCI tumour cell line growth inhibition, 48 h
measurement.name: GI50

O=C(c1ccc2ccccc2c1)c1c(C(F)(F)F)n([O-])c2ccc(C(F)(F)F)cc2[n+]1=O; 1.67 µM
O=C(NCC1CC1)c1ccc(-c2cccc(C(=O)NC3CC3)c2)cc1; > 25 µM
Clc1ccc(-c2cn3ccnc3c(-c3ccc(Cl)cc3)n2)cc1; 22.6 µM
O=S(=O)(/N=c1\scc(-c2ccccc2)n1-c1ccccc1)c1ccc(N2N=C3c4ccccc4CC3C2c2ccc(Cl)cc2)cc1 (stereo not given); 29.6 µM
C/C(=N/O)c1cccc(Nc2cc(-n3nnc4ccccc43)nc3ccccc23)c1; 13.6 µM

Item O=C(Oc1cccnc1)c1cccnc1Nc1ccnc(C(F)(F)F)c1 has what recorded GI50?
17.2 µM

Item O=S(=O)(Nc1ccc(Br)cc1)c1ccc(-c2cnc(C3CC3)o2)cc1 has what recorded GI50?
5.36 µM

Item CCCN1C(=O)NC(=O)C(CC)(N2C(=O)c3c(F)c(F)c(F)c(F)c3C2=O)C1=O (stereo not given) has what recorded GI50?
2.29 µM

Item Nc1ncn([C@@H]2S[C@H](CO)[C@@H](O)[C@@H]2F)c(=O)n1 has what recorded GI50?
> 100 µM

Item CN1CCC(CNc2cc(C3(C(=O)Nc4cc(C(=O)Nc5ccc(Cl)c(C(F)(F)F)c5)ccc4F)CC3)ncn2)CC1 has what recorded GI50?
3.89 µM

Item COc1cc(/C=C/C(=O)/C=C/c2cc(OC)c3c(c2)OCO3)cc2c1OCO2 has what recorded GI50?
30.3 µM

Item Oc1cccc(Nc2nc3ccccc3c3occc23)c1 has what recorded GI50?
5.21 µM

Item c1cc[c]([Sn][c]2ccccc2)cc1 has what recorded GI50?
20.1 µM

Item C=C1CCC2C3(C)COC(C)(C)OC3CCC2(C)C1C/C=C1/C(=O)OCC1OC(C)=O (stereo not given) has what recorded GI50?
5.24 µM

Item c1ccc(-c2nc(-c3ccccn3)nc(-c3ccccn3)n2)nc1 has what recorded GI50?
45.5 µM

Reference source for all entries: PubChem BioAssay (NCI)
